# experimentNotes: Half life in Sprague-Dawley rat liver microsomes at 6 ug/ml by HPLC method
# Type: ADME
Please respond with reported half-life at 6 ug/ml for every item in the list.

## Task Output measured half-life at 6 ug/ml for this item: CC(=O)OCC1(C)[C@@H](OC(C)=O)CC[C@]2(C)[C@H]3[C@@H](O)c4c(cc(-c5cccnc5)oc4=O)O[C@]3(C)[C@@H](OC(=O)C3CCCCC3)C[C@@H]12 (single isomer, unassigned)
## Result < 60 min

## Task // Input: C[C@@]12CO[C@@H](c3ccccc3F)O[C@H]1CC[C@@]1(C)[C@H]2C[C@H](OC(=O)c2ccc(F)cc2)[C@@]2(C)Oc3cc(-c4cccnc4)oc(=O)c3[C@H](O)[C@H]12 . Output its half-life at 6 ug/ml only.
## Result > 540 min

## Task Give the measured half-life at 6 ug/ml for CC(=O)OCC1(C)[C@@H](OC(C)=O)CC[C@]2(C)[C@H]3[C@@H](O)c4c(cc(-c5cccnc5)oc4=O)O[C@]3(C)[C@@H](OC(=O)c3ccc(C)cc3)C[C@@H]12 (single isomer, unassigned)
## Result < 60 min

## Task Identify measured half-life at 6 ug/ml associated with CC(=O)O[C@H]1CC[C@@]2(C)[C@@H](C[C@H](OC(C)=O)[C@@]3(C)Oc4cc(-c5cccnc5)oc(=O)c4[C@H](O)[C@H]23)[C@]1(C)COC(=O)c1ccccc1
## Result > 540 min

## Task Look up and report measured half-life at 6 ug/ml for this entry: Cc1ccc([C@@H]2OC[C@@]3(C)[C@@H]4C[C@H](OC(=O)c5ccc(F)cc5)[C@@]5(C)Oc6cc(-c7cccnc7)oc(=O)c6[C@H](O)[C@@H]5[C@@]4(C)CC[C@@H]3O2)cc1
## Result > 540 min

## Task Retrieve half-life at 6 ug/ml measured for CC(=O)OCC1(C)[C@@H](OC(C)=O)CC[C@]2(C)[C@H]3[C@@H](O)c4c(cc(-c5cccnc5)oc4=O)O[C@]3(C)[C@@H](OC(=O)c3ccccc3C)C[C@@H]12 (single isomer, unassigned) and print it.
## Result < 60 min

## Task Answer with the recorded half-life at 6 ug/ml of CN(C)c1ccc([C@@H]2OC[C@@]3(C)[C@@H]4C[C@H](OC(=O)c5ccc(C#N)cc5)[C@@]5(C)Oc6cc(-c7cccnc7)oc(=O)c6[C@H](O)[C@@H]5[C@@]4(C)CC[C@@H]3O2)cc1 only.
## Result > 540 min

## Task For the molecule C[C@@]12CO[C@@H](c3ccccc3)O[C@H]1CC[C@@]1(C)[C@H]2C[C@H](OC(=O)C2CCCCC2)[C@@]2(C)Oc3cc(-c4cccnc4)oc(=O)c3[C@H](O)[C@H]12 , give its measured half-life at 6 ug/ml value.
## Result > 540 min

## Task Read off the recorded half-life at 6 ug/ml for CCCCCC(=O)OC[C@@]1(C)[C@@H]2C[C@H](OC(=O)c3ccc(C#N)cc3)[C@@]3(C)Oc4cc(-c5cccnc5)oc(=O)c4[C@H](O)[C@@H]3[C@@]2(C)CC[C@@H]1OC(=O)CCCCC
## Result > 540 min

## Task Tell me half-life at 6 ug/ml reported for COc1ccc(CNC(=O)[C@@]2(C)[C@@H](OC(C)=O)CC[C@]3(C)[C@H]4[C@@H](O)c5c(cc(-c6cccnc6)oc5=O)O[C@]4(C)[C@@H](OC(=O)c4ccc(C#N)cc4)C[C@H]32)c(OC)c1
## Result > 540 min

## Task Output measured half-life at 6 ug/ml for this item: C[C@]1(COC(=O)c2ccccc2)[C@@H]2C[C@H](OC(=O)c3ccc(C#N)cc3)[C@@]3(C)Oc4cc(-c5cccnc5)oc(=O)c4[C@H](O)[C@@H]3[C@@]2(C)CC[C@@H]1OC(=O)c1ccccc1
## Result > 540 min

## Task Assign half-life at 6 ug/ml to the following record: CC(=O)O[C@H]1CC[C@@]2(C)[C@@H](C[C@H](OC(=O)c3ccc(C#N)cc3)[C@@]3(C)Oc4cc(-c5cccnc5)oc(=O)c4[C@H](O)[C@H]23)[C@]1(C)COC(=O)C(C)C
## Result > 540 min

## Task Dear colleague, please send me the reported half-life at 6 ug/ml for CC(C)C(=O)OCC1(C)[C@@H](OC(=O)C(C)C)CC[C@]2(C)[C@H]3[C@@H](O)c4c(cc(-c5cccnc5)oc4=O)O[C@]3(C)[C@@H](OC(=O)c3ccc(C#N)cc3)C[C@@H]12 (single isomer, unassigned) when you can.
## Result > 540 min

## Task Tell us which half-life at 6 ug/ml value is on record for C[C@@]12CO[C@@H](c3ccccc3)O[C@H]1CC[C@@]1(C)[C@H]2C[C@H](OC(=O)c2ccccc2)[C@@]2(C)Oc3cc(-c4cccnc4)oc(=O)c3[C@H](O)[C@H]12
## Result > 540 min

## Task Input COc1cccc(C(=O)O[C@H]2C[C@H]3C(C)(COC(C)=O)[C@@H](OC(C)=O)CC[C@]3(C)[C@H]3[C@@H](O)c4c(cc(-c5cccnc5)oc4=O)O[C@]23C)c1 (single isomer, unassigned) , output reported half-life at 6 ug/ml.
## Result > 540 min

## Task Consider the molecule COc1ccccc1[C@@H]1OC[C@@]2(C)[C@@H]3C[C@H](OC(=O)c4ccc(C#N)cc4)[C@@]4(C)Oc5cc(-c6cccnc6)oc(=O)c5[C@H](O)[C@@H]4[C@@]3(C)CC[C@@H]2O1 and give its recorded half-life at 6 ug/ml.
## Result > 540 min

## Task Supply half-life at 6 ug/ml value. Item: CC(=O)O[C@H]1C[C@H]2[C@]3(C)CO[C@@H](c4ccccc4)O[C@H]3CC[C@]2(C)[C@H]2[C@@H](O)c3c(cc(-c4cccnc4)oc3=O)O[C@]12C
## Result > 540 min

## Task Supply half-life at 6 ug/ml value. Item: COC(=O)[C@@]1(C)[C@@H](OC(C)=O)CC[C@]2(C)[C@H]3[C@@H](O)c4c(cc(-c5cccnc5)oc4=O)O[C@]3(C)[C@@H](OC(=O)c3ccc(C#N)cc3)C[C@H]21
## Result > 540 min

## Task In one line, give reported half-life at 6 ug/ml of the entry CC(=O)O[C@H]1CC[C@@]2(C)[C@@H](C[C@H](OC(=O)c3ccc(C#N)cc3)[C@@]3(C)Oc4cc(-c5cccnc5)oc(=O)c4[C@H](O)[C@H]23)[C@]1(C)COC(=O)c1ccccc1 .
## Result > 540 min

* * *

# experimentNotes: Half life in Sprague-Dawley rat liver microsomes at 6 ug/ml by HPLC method
# Assay type: ADME
Can you tell me half-life at 6 ug/ml for the items I'm about to list?

## Task Identify the reported half-life at 6 ug/ml for the following entry. Cc1cccc([C@@H]2OC[C@@]3(C)[C@@H]4C[C@H](OC(=O)c5ccc(F)cc5)[C@@]5(C)Oc6cc(-c7cccnc7)oc(=O)c6[C@H](O)[C@@H]5[C@@]4(C)CC[C@@H]3O2)c1
## Result > 9 h

## Task Using known records, supply half-life at 6 ug/ml for Cc1ccc([C@@H]2OC[C@@]3(C)[C@@H]4C[C@H](OC(=O)c5ccc(C#N)cc5)[C@@]5(C)Oc6cc(-c7cccnc7)oc(=O)c6[C@H](O)[C@@H]5[C@@]4(C)CC[C@@H]3O2)c(C)c1
## Result > 9 h

## Task Look up half-life at 6 ug/ml of Cc1ccc([C@@H]2OC[C@@]3(C)[C@@H]4C[C@H](OC(=O)c5ccc(F)cc5)[C@@]5(C)Oc6cc(-c7cccnc7)oc(=O)c6[C@H](O)[C@@H]5[C@@]4(C)CC[C@@H]3O2)c(C)c1 and report it.
## Result > 9 h

## Task Complete the entry with half-life at 6 ug/ml for CCc1ccc(C(=O)O[C@H]2C[C@H]3C(C)(COC(C)=O)[C@@H](OC(C)=O)CC[C@]3(C)[C@H]3[C@@H](O)c4c(cc(-c5cccnc5)oc4=O)O[C@]23C)cc1 (single isomer, unassigned)
## Result < 1 h

## Task Return reported half-life at 6 ug/ml. Input compound: CC(=O)OCC1(C)[C@@H](OC(C)=O)CC[C@]2(C)[C@H]3[C@@H](O)c4c(cc(-c5cccnc5)oc4=O)O[C@]3(C)[C@@H](OC(=O)c3cccc(Br)c3)C[C@@H]12 (single isomer, unassigned)
## Result < 1 h

* * *

# experimentNotes: Half life in Sprague-Dawley rat liver microsomes at 6 ug/ml by HPLC method
# Format: ADME
I'd be grateful if you could share measured half-life at 6 ug/ml for these entries.

## Task Provide half-life at 6 ug/ml value for the following compound: COc1ccccc1[C@@H]1OC[C@@]2(C)[C@@H]3C[C@H](OC(=O)c4ccc(F)cc4)[C@@]4(C)Oc5cc(-c6cccnc6)oc(=O)c5[C@H](O)[C@@H]4[C@@]3(C)CC[C@@H]2O1
## Result > 9 h

## Task Quickly give me recorded half-life at 6 ug/ml for Cc1ccc([C@@H]2OC[C@@]3(C)[C@@H]4C[C@H](OC(=O)c5ccc(C#N)cc5)[C@@]5(C)Oc6cc(-c7cccnc7)oc(=O)c6[C@H](O)[C@@H]5[C@@]4(C)CC[C@@H]3O2)cc1
## Result > 9 h

## Task Supply half-life at 6 ug/ml value. Item: CC(=O)OCC1(C)[C@@H](OC(C)=O)CC[C@]2(C)[C@H]3[C@@H](O)c4c(cc(-c5cccnc5)oc4=O)O[C@]3(C)[C@@H](OC(=O)c3ccccc3F)C[C@@H]12 (single isomer, unassigned)
## Result < 1 h

## Task State, in one line, measured half-life at 6 ug/ml of COc1ccc(C(OC)O[C@H]2C[C@H]3[C@]4(C)CO[C@@H](c5ccccc5)O[C@H]4CC[C@]3(C)[C@H]3[C@@H](O)c4c(cc(-c5cccnc5)oc4=O)O[C@]23C)cc1 (stereo not given in full)
## Result > 9 h

## Task Tell me its half-life at 6 ug/ml given CC(C)C(=O)OC[C@@]1(C)[C@@H]2C[C@H](OC(=O)c3ccc([N+](=O)[O-])cc3)[C@@]3(C)Oc4cc(-c5cccnc5)oc(=O)c4[C@H](O)[C@@H]3[C@@]2(C)CC[C@@H]1OC(=O)C(C)C as the entry.
## Result > 9 h

The reported numbers originate from ChEMBL document CHEMBL3880418.
